Ref: the RNAGym collection of RNA variant scans (doi:10.7554/elife.80360)

For each entry below, report its self-cleavage value.
B1: HDV Ribozyme (parent)
chain: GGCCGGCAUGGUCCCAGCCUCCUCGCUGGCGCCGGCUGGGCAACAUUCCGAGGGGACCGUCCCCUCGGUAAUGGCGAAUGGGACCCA

Variants of: B1
Experiment: self-cleavage, relative activity (ratio to wild type); higher = more cleavage; co-transcriptional
A bare number is all that is needed in reply.

Qu. Field request: self-cleavage | item: GACCGGCAUGGUCCCAGCCUCCUCGCUGGCGCCGGGUGGGCAACAUUCCGAGGGGACCGUCCCCUCGGUAAUGGCGAAUGGGACCCA [G2A C36G]
Ans. 0.0764

Qu. Data request, read-out self-cleavage, for GGCGGGCAUGGUCCCAGCCUCCUCGCUGGCGCCGGCUGGGCAACAUUCCGAGGGGACCGUCCCCUCGGUAAUGGCGAAUGGGACCCU [C4G A87U]
Ans. 0.225

Qu. Which value of self-cleavage has been reported for GGCCGGCAUGGUCCCAGCCUCCUCGCUGGCGCCGGCUGGGCAACAUUCCGAGGGUACCGUCCCCUCGGUAAUGGCGCAUGGGACCCA [G55U A77C] in the records?
Ans. 0.353

Qu. Query: self-cleavage; subject: GGCCGGCAUGGUCCCAGCCUCCUCGCUGGCGCCGGCUGGGCUACAUUCCGAGGGGACCGUCCCCUCGGUAAUGGCGACUGGGACCCA [A42U A78C]
Ans. 0.169

Qu. Reported self-cleavage, variant GGCCGGCAUGGUCCCAGCCUCCUCGCUGGCGCCGGCUGGGCAACAUACCGAGGGGACCGUCCCUUCGGUAAUGGCGAAUGGGACCCA [U47A C64U] : ____
Ans. 1.08

Qu. Fill in the blank: the reported self-cleavage of GGCCGGCAUGGUCCCAGCCUCCUCGCUGGCGCCGGCUGGGCAACAUUCCGAGGUGACCGUCCCCUCAGUAAUGGCGAAUGGGACCCA [G54U G67A] is ____.
Ans. 1.01

Qu. I am curious: what self-cleavage value has been reported for GGCCGGCAUGGUCCCAGCCUCCUCGCUGGCGCCGGCUGGGCAACAUUCUGAGGGGACCGGCCCCUCGGUAAUGGCGAAUGGGACCCA [C49U U60G] ?
Ans. 0.939

Qu. Please report the recorded self-cleavage for GGCCGGCAUGGUCCCAGCCUCCUCGCUGGCGCCGGCUGGGCCACAUUCCGAGGGGACCGUCCCCUCGGUAGUGGCGAAUGGGACCCA [A42C A71G] .
Ans. 0.361

Qu. Form field: reported self-cleavage of GGCCGGCAUGGUCGCAGCCUCCUCGCUGGCGCCGGCUGGGCAACAUUCCGAGGGGACCGUCUCCUCGGUAAUGGCGAAUGGGACCCA [C14G C62U]
Ans. 0.554

Qu. What measured self-cleavage goes with GGCCGGCAUGGUCCCAGCCUCCUCGCUGACGCCGGCUGGGCAACAUUCCGAGGGGACCGUUCCCUCGGUAAUGGCGAAUGGGACCCA [G29A C61U] ?
Ans. 0.274

Qu. Consider the variant GGCCCGCAUGGUCCCAGCCUCCUCGCUGGCGCCGGCUGGGCAACAUUCCGAGGGGACCGUCCCCUCGGUAACGGCGAAUGGGACCCA [G5C U72C] and give its measured self-cleavage.
Ans. 0.123

Qu. Given the variant GGCCGGCAUGGUCCCAGCGUCCUCGCUGGCGCCGGCUGGGCAACAUUCCGAGGGGACCGUCCCCUCGGUAAUGGAGAAUGGGACCCA [C19G C75A] , what is its reported self-cleavage?
Ans. 0.0773

Qu. Given the entry GGCCGGCCUGGUCCCAGACUCCUCGCUGGCGCCGGCUGGGCAACAUUCCGAGGGGACCGUCCCCUCGGUAAUGGCGAAUGGGACCCA [A8C C18A] , report its measured self-cleavage.
Ans. 0.0415

Qu. Returns the measured self-cleavage for the input variant. Input: GGCCGGCAUGGUCCCAGCCUCCUCGCUGGCGCCGGCUGGGCAACAUUCCGAGGGGACCGUCCCCUCGGUAAUCGCGAAUGGGACCCC [G73C A87C]
Ans. 0.592

Qu. Which self-cleavage is reported for this variant? GGCCGGCAUGGUCCCAGCCUCCUCGCUGGCGCCGGCUGGGCAACAUUCCGAGGGUACCGUCCCCUCGGUAAUGGCGAAUGGGACCGA [G55U C86G]
Ans. 1.03

Qu. Look up self-cleavage: GGCCGGCAGGGUCCCAGCCUCCUCGCUGGCGCCGGCUGGGCAACAUUCCGAGGGGACCGUCCCCUCGGUAAUCGCGAAUGGGACCCA [U9G G73C]
Ans. 0.767

Qu. Which self-cleavage value is on record for UGCCGGCAUGGUCCCAGCCUCCUCGCUGGCGCCGGCUGGACAACAUUCCGAGGGGACCGUCCCCUCGGUAAUGGCGAAUGGGACCCA [G1U G40A] ?
Ans. 0.426

Qu. # input variant: GGCCGGCAUGGUCCCAGCCUCCUCGCUGGCGCCGGCUGGGCAACAUUCCGAGCGGGCCGUCCCCUCGGUAAUGGCGAAUGGGACCCA [G53C A56G] ; wanted: its self-cleavage
Ans. 0.962

Qu. Look at this variant and give its reported self-cleavage. GGCCGGCAUGGUCCCAGCCUCCUCGCUGGCGCCGGCUGGGUAACAUUCCGAGGGGACCGUCCCCUCGGUAAUGGCGAAUGGGACACA [C41U C85A]
Ans. 0.937

Qu. What self-cleavage value was documented for this variant, GGCCGGCAUGGUCCCAGCCUCCUCGCUGAGGCCGGCUGGGCAACAUUCCGAGGGGACCGUCCCCUCGGUAAUGGCGAAUGGGACCCA [G29A C30G] ?
Ans. 0.0415

Qu. Can you look up the measured self-cleavage of GGCCGGCAUGGUCCCAGCCUCCUCGCUGGCGCCGGCUGGGCAACAUUCCGAGGGGACCGUCCCCUCGGGAAUGGCCAAUGGGACCCA [U69G G76C] for me?
Ans. 0.77

Qu. // self-cleavage lookup, key: GGCCGGCAUGGUCCCAGCCUCCUCGCUGGCACCGGCUGGGCAACAUUCCGAAGGGACCGUCCCCUCGGUAAUGGCGAAUGGGACCCA [G31A G52A]
Ans. 0.46

Qu. Look at this variant and give its reported self-cleavage. GGCCGGCAUGGUCCCAGCCUCCUCGCUGGCGCCGGCUUGGCAACAUUCCGAGGGGGCCGUCCCCUCGGUAAUGGCGAAUGGGACCCA [G38U A56G]
Ans. 0.193

Qu. Field request: self-cleavage | item: GGCCGGCAUGGUCCCAGCCUCCUCGCUGGCGCCGGCUGGGCAACAUUCCGAGGGGUCCGUCCCCUCGGUAAUGGCGAAUAGGACCCA [A56U G80A]
Ans. 0.358

Qu. Tell me the measured self-cleavage of GGCCGGCCUGGUCCCAGCCUCCUCGCUGGCGCCGGCUGGGCUACAUUCCGAGGGGACCGUCCCCUCGGUAAUGGCGAAUGGGACCCA [A8C A42U] , please.
Ans. 0.133

Qu. Data request, read-out self-cleavage, for GGCCGGCAUGGUCCCAGCCUCCUCGUUGGCGCCGGCUGGGCAACAUUCCGAAGGGACCGUCCCCUCGGUAAUGGCGAAUGGGACCCA [C26U G52A]
Ans. 1.14

Qu. Fill in the blank: the reported self-cleavage of GGCCGGCAUGGUCCCAGCCUCCUCGCUGGCGCCGGCUGGGCAACAUUCCGAGGGGACCGUCCCCUCCGUAAUGGUGAAUGGGACCCA [G67C C75U] is ____.
Ans. 0.0545

Qu. Quick one: self-cleavage for GGCCGGCAUGGUCCCAGCCUCCUCGCUGGCGCCGGCUGGGCAACAUUCCGAGGGGACCGUCCCCUCGGUAAAGGCGAAUUGGACCCA [U72A G80U] ?
Ans. 0.251

Qu. Look at this variant and give its reported self-cleavage. GGCCGGCAUGGUCCCGGCCUCCUCGCUGGCGCCGGCUGGGCAACAUUCCGAGGCGACCGUCCCCUCGGUAAUGGCGAAUGGGACCCA [A16G G54C]
Ans. 1.08

Qu. Return reported self-cleavage; argument: GGCCGGCAUGGUCCCAGCCUCCUCGCAGGCGCCGGCUGGGCAACAUUCCGAGGGGGCCGUCCCCUCGGUAAUGGCGAAUGGGACCCA [U27A A56G]
Ans. 1.08

Qu. What value of self-cleavage has been reported for the following variant? GGCCGGCCUGGUCCCAGCCUCCUCGCUGGCGCCGGCUGGGCAACAUUCCGAGGGGACCGUCCCCUCGGUAGUGGCGAAUGGGACCCA [A8C A71G]
Ans. 0.772

Qu. I would be grateful if you could share the reported self-cleavage for GGACGGCAUGGUCCCAGCCUCCUCGCUGGCGCCGGCUGGGCAACAUUCCGAGGGGACCGUCCCCUCGGUAAUGGCAAAUGGGACCCA [C3A G76A] .
Ans. 0.783

Qu. Give the measured self-cleavage of GGCCGGCAUGGACCCAGCCUCCUCGCUGGCGCCGGCUGGGCAACAUUCCGAGGGGAACGUCCCCUCGGUAAUGGCGAAUGGGACCCA [U12A C57A] .
Ans. 0.256

Qu. If you can, please state the reported self-cleavage value of GGCCGGCAUGGUCCCAGCCUCCUCGCUGGCGCCGGCUGGGCAACAUUCAGAGGGGACCGUCCCCUCGGUAAUGGCGAAUGUGACCCA [C49A G81U] .
Ans. 0.26

Qu. Find the recorded self-cleavage belonging to GGCCGGCAUGGUCCCAGCCUCCUCGCUGGCGCUGGCUGGGCAACAUUCCGAGGGUACCGUCCCCUCGGUAAUGGCGAAUGGGACCCA [C33U G55U] and report it.
Ans. 0.865

Qu. I have this variant here, GGCCGGCAUGGUCCCAGCCUCCCCGCUGGCGCCGGCUGGGCAACAUUCCGAGGGGACCGUCCCCUCGGGAAUGGCGAAUGGGACCCA [U23C U69G] , and I need its recorded self-cleavage.
Ans. 0.739

Qu. Tell me the measured self-cleavage of GGCCGGCAUGGUCCCAGCCUCCUCGCUGGCGCCGGCUGGGCAACAUUCCGAGGGGACCGUACCCUCGGUAUUGGCGAAUGGGACCCA [C61A A71U] , please.
Ans. 0.784

Qu. Looking for the measured self-cleavage of GGCCGGCAUGGUCCCAGCCUCCUCGCUGGCGCCGGAUGGGCAACUUUCCGAGGGGACCGUCCCCUCGGUAAUGGCGAAUGGGACCCA [C36A A45U] , can you help?
Ans. 0.0475

Qu. Need self-cleavage of GGCCGGCAUGGUCCCAGCCUCCUCUCUGGCGCCGACUGGGCAACAUUCCGAGGGGACCGUCCCCUCGGUAAUGGCGAAUGGGACCCA [G25U G35A] , thanks.
Ans. 0.0415
